Experiment: inhibitors of GR-EGFP nuclear translocation, primary screen, dynein cargo transport inhibitor project, imaging, high-content, 3617.4 mouse cells (AID 1381)
Conditions: measured here: cell count per field, at 20 µM, stimulated with dexamethasone, 1 µM
Screen size: about 220,000 compounds; about 1,000 (0.45%) were called active. The sample as a whole holds a higher share of actives than the screen did.
z-score below -0.4 gives Not met; z-score at or above it gives Met.

In [3]: df
Out[3]:
                               smiles_entry  category_label
0             O=C(NCCc1ccccc1)Oc1ccc(Cl)cc1             Met
1  COc1ccc(CN(Cc2ccc(OC)cc2)C(=O)c2cccs2)cc1             Met
2           CCOC(=O)C(=Cc1ccccc1OC)C(=O)OCC             Met
3       CCCN(c1ccc(C)cc1)c1nc(=O)c2cccnc2s1             Met
4          CC1(C)COC(c2cccn2Cc2ccccc2Cl)=N1             Met
5  Cc1ccc(CNC(=O)Cn2c(=O)c3sccc3n(Cc3cccc([N+](=O)[O-])c3)c2=O)cc1             Met
6                O=C(CCCOc1ccccc1)NCc1ccco1         Not met
7  Cc1cccc(-n2cc(CN3CCN(C(=O)c4ncn[nH]4)CC3)c(-c3cccc(F)c3)n2)c1         Not met
8  O=C(COC(=O)c1ccccc1)Nc1cccc(S(=O)(=O)N2CCOCC2)c1             Met
9  Cc1ccc(S(=O)(=O)N(C)c2ccc(OCC(=O)NC3=NCCS3)cc2)cc1         Not met

* * *

Experiment: inhibitors of GR-EGFP nuclear translocation, primary screen, dynein cargo transport inhibitor project, imaging, high-content, 3617.4 mouse cells (AID 1381)
Conditions: measured here: cell count per field, at 20 µM, stimulated with dexamethasone, 1 µM
Hit rate of the full screen: of about 220,000 compounds, about 1,000 (0.45%) were called active. Shown is part of a subset that was picked to be rich in actives.
Consider the reported z-score of an entry and match it to a band in bottom range: < -0.2; center range: ≥ -0.2 and < 0.5; top range: ≥ 0.5

>>> print(df.to_string())
                                    molecule  category_label
 0      C/C(=N\NC(=O)c1nc(C)cc(C)n1)c1ccccc1    bottom range
 1  Cc1cccc(NC(=S)N2CCC(c3nc4ccccc4s3)CC2)c1    center range
 2  C/C(N)=C(/C#N)C(=O)COC(=O)c1cc(-c2cccc(Br)c2)nc2ccccc12    bottom range
 3  C/C(CC(=O)Nc1cccc(C(F)(F)F)c1)=N\NC(=O)C(=O)NCC(C)C       top range
 4  COc1ccc(CCc2nnc(CCC(=O)NCc3cnn(-c4ccccc4C)c3)o2)cc1    bottom range
 5  COc1ccc(CCNC(=O)c2ccc(CS(=O)(=O)c3ccc(Br)cc3)o2)cc1OC    center range
 6  CCn1c(SCC(=O)Nc2nc(C)cs2)nnc1C(C)NC(=O)c1ccccc1 (stereo not drawn)    bottom range
 7  COc1ccc(NC(=O)/C(Cl)=C(/Cl)S(=O)Cc2ccc(C)cc2)cn1 (stereo not drawn)    bottom range
 8  CSc1nc2c(c(=O)[nH]1)C(c1cccc(Cl)c1Cl)CC(=O)N2 (stereo not drawn)    center range
 9    O=C(Nc1ccccc1)OCc1cc(-c2ccc(Cl)cc2)on1    bottom range
10               COCCN(CCOC)C(=S)Nc1ccccc1Cl       top range
11  CCC(=O)Nc1cccc(C2=NOC3(C2)C[C@@H](C(N)=O)N(C(=O)c2cc([N+](=O)[O-])cc([N+](=O)[O-])c2C)C3)c1 (stereo partly drawn)    bottom range
12  O=C(Nc1ccccc1Cl)/C(Cl)=C(\Cl)S(=O)c1ccccc1 (stereo not drawn)    center range
13  CC(C)Sc1nnc([C@H](Cc2ccccc2)NC(=O)OC(C)(C)C)o1       top range
14  CSCCC(NC(=O)COc1ccccc1)C(=O)Nc1ccc(C)cc1 (stereo not drawn)       top range
15  CC(NC(=S)Nc1ccccc1)C1COc2ccccc2O1 (stereo not drawn)    center range
16  Cc1c(Cl)cccc1NC(=O)CC1SC(=NCC2CCCO2)NC1=O (stereo not drawn)    center range
17  O=C1c2ccccc2NC(c2ccccn2)N1NS(=O)(=O)c1ccccc1 (stereo not drawn)       top range
18  C[C@H](NC(=O)OC(C)(C)C)c1nnc(SCC(N)=O)o1    bottom range
19  COc1ccc(-c2cc(C(F)(F)F)nc(SCC(=O)Nc3ccc4c(c3)OCO4)n2)cc1OC       top range
20  COc1ccc(C(=O)NCC(=O)N/N=C/c2ccc([N+](=O)[O-])s2)cc1OC       top range
21  O=C(NCc1ccc(F)cc1)C(c1ccccc1)N(C(=O)c1csnn1)C1CC1 (stereo not drawn)    bottom range
22  CCCc1nc2oc3c(=O)[nH]cnc3c2c2c1COC(C)(C)C2       top range
23  COc1ccc(Cl)cc1-n1c(C)cc(C(=O)OCC(=O)N2CC(=O)Nc3ccccc32)c1C       top range
24  COc1ccc(CS(=O)/C(Cl)=C(/Cl)C(=O)Nc2ccc(OC)nc2)cc1 (stereo not drawn)    center range
25  CC1=C/C(=N\S(=O)(=O)c2ccccc2)C(C(C)C)=CC1=O    bottom range
26  CCOC(=O)CN(Cc1ccc(OC)c(OC)c1)S(=O)(=O)c1ccc(OC)cc1       top range
27                Nc1ncnc(Nc2cccc(Cl)c2Cl)n1       top range
28  CC(=O)Nc1ccc(S(=O)(=O)NCC(=O)OCc2cc(=O)oc3ccc4ccccc4c23)cc1    bottom range
29   O=C(Nc1ccc(N2CCOCC2)cc1)c1ccc2c(c1)OCO2    bottom range
30  N#Cc1cccc(NC(=O)COC(=O)c2ccccc2C(=O)c2ccc(Cl)c([N+](=O)[O-])c2)c1       top range
31  CC1C/C(=N/NC(=O)c2cccs2)CC(C)(C)C1 (stereo not drawn)    center range
32  CC(=O)NC1(c2ccc(F)cc2)CCN(C(=O)c2c(F)cccc2F)CC1       top range
33                O=C(O)c1ccccc1OCc1ccccc1Cl    center range
34  O=C(NCc1cccnc1)c1cccc(-c2cc3ccccc3oc2=O)c1       top range
35  COc1ccc(C(CCN(Cc2ccc(OC)c(OC)c2)C(=O)CCl)c2ccccc2)cc1 (stereo not drawn)    bottom range
36  COc1ccc(-c2cc(C(F)(F)F)nc(S(C)(=O)=O)n2)cc1OC    center range
37  COC(=O)C(C(=O)Nc1cccc(Cl)c1C)C1CCCC1 (stereo not drawn)       top range
38             COc1ccc(NC(=S)Nc2ccccc2Cl)cn1    center range
39  O=C1c2cccc3cc(Br)cc(c23)C(=O)N1Nc1ccccc1    center range
40  O=C(NNS(=O)(=O)Cc1ccccc1)c1ccc([N+](=O)[O-])cc1    center range

* * *

Assay: inhibitors of GR-EGFP nuclear translocation, primary screen, dynein cargo transport inhibitor project, imaging, high-content, 3617.4 mouse cells (AID 1381)
Settings: measured here: nuclear GR-EGFP intensity, at 20 µM, stronger effect = lower value, stimulated with dexamethasone, 1 µM
In all, about 220,000 compounds went through this assay and about 1,000 (0.45%) were called active. The sample holds actives, similar compounds and a random draw of the others, so the mix is not that of the screen.
Each entry below carries its recorded z-score.
RECORDED_ENDPOINT: z-score

In [3]: df
Out[3]:
                                   compound  numeric_readout
0           CCOC(=O)C(=Cc1ccccc1OC)C(=O)OCC            -2.52
1  CCC(=O)Nc1cccc(C2=NOC3(C2)C[C@@H](C(N)=O)N(C(=O)c2cc([N+](=O)[O-])cc([N+](=O)[O-])c2C)C3)c1 (stereo not given in full)            0.119
2  CC1=C/C(=N\S(=O)(=O)c2ccccc2)C(C(C)C)=CC1=O            0.209
3  CCOC(=O)C1(S(=O)(=O)c2ccccc2)CCN(Cc2ccccc2)CC1            0.556
4         CCOC(=O)C(=CNc1cccc(C)n1)C(=O)OCC            0.879

* * *

Assay: inhibitors of GR-EGFP nuclear translocation, primary screen, dynein cargo transport inhibitor project, imaging, high-content, 3617.4 mouse cells (AID 1381)
Details: measured here: nuclear GR-EGFP intensity, at 50 µM, stronger effect = lower value, stimulated with dexamethasone, 1 µM
About 1,000 (0.45%) of roughly 220,000 compounds were called active. Only a selection was taken, and actives are over-represented in it overall.
Label key: Met means z-score under -0.03; Not met means z-score of -0.03 or more.

                               smiles_entry  category_label
0  CCOC(=O)c1cc2c(ccn2C)n1CC(=O)N1CCC(C)CC1             Met
1  Cc1ccc(Cn2c(C)nc3c(c2=O)c2nc4ccccc4nc2n3Cc2ccco2)cc1             Met
2  Cc1ccc(NC(=O)c2cc(-c3ccc(C)o3)nc3ccccc23)nc1             Met
3         O=C(Nc1ccc(F)cc1)c1cccnc1N1CCOCC1         Not met
4       CSC1=N/C(=C\c2ccc3c(c2)OCO3)C(=O)S1             Met
5        COc1cc2c(cc1OC)C(C(C)C)=NC(C)(C)C2         Not met
6  CCCCCCc1cc2cc(-c3nnc(-c4cccc(OC)c4)o3)c(=O)oc2cc1O         Not met
7             CC(=O)Nc1ccccc1OC(=O)N1CCOCC1         Not met
8  CCN(CC)S(=O)(=O)c1ccc2c3c(cccc13)C(=O)S2             Met
9              CCN(CC)c1ccc2oc(=O)c(C)nc2c1             Met
